system under test: HSET full length protein (Homo sapiens (Human))
Sequence (Q9BW19 whole entry): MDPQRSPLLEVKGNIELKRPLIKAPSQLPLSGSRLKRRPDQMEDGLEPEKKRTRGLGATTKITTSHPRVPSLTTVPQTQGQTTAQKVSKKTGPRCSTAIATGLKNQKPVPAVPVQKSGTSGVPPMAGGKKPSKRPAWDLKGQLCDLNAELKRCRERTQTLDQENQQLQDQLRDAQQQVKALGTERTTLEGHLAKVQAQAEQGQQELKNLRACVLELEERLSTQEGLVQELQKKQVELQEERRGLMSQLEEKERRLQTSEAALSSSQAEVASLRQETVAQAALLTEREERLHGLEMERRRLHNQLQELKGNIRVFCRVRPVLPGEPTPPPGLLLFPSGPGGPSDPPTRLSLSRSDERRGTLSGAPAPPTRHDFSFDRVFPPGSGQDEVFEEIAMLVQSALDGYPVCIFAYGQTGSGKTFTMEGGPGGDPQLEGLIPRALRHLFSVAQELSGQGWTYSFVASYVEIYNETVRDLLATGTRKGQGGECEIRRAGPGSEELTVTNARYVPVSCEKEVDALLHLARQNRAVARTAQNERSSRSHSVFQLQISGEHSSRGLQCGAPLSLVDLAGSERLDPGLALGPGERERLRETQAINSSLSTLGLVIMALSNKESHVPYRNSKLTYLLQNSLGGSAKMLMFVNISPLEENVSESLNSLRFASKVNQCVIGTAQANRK
run description: HSET ADP-Glo Assay S - 3 μM ATP
conditions used: 5 nM HSET, 70 μg/mL microtubule, 80 min at rt, read-out: COMBINED HSET ADP GLO IC50
Where a name gives a salt, the structure may show the parent alone.
recorded endpoint: IC50 (nM)

P: CCCc1nc(-c2cc(NC(=O)[C@@H](O)CNc3nccc4ccc(C)cc34)nn2C)no1 [Example 183]
Q: Cc1nc(-c2cc(Cl)cc(C(=O)NCCC(=O)Nc3nc(C)c(C(C)(C)C)s3)c2)no1 [Example 31]
From the recorded data, which exceeds the other in IC50: P or Q ? State your choice using its label.
P
(P: 17300 nM, Q: 191 nM)

I: CCCOC(=O)c1cc(C(=O)N2CC[C@H](Nc3nccc4ccc(-c5noc(C)n5)cc34)C2)nn1C [Example 245]
II: Cc1nc(-c2ccc3ccnc(N[C@H]4C[C@@H](C(=O)Nc5nc(C)c(C(=O)O[C@@H](C)C(F)(F)F)s5)C4)c3c2)no1 (stereo in doubt) [Example 115]
III: CCCCCCOC(=O)c1sc(NC(=O)CCNC(=O)c2cccc(-c3noc(C)n3)c2)nc1C [Example 123]
Order field: IC50 | Direction: descending (largest first) Write the labels, ordered according to the request.
I, III, II
(I: 7470 nM, III: 9 nM, II: 5 nM)

A: Cc1nc(-c2ccc3ccnc(NC[C@@H](O)C(=O)Nc4nc(C)c(C5(C(F)(F)F)CC5)s4)c3c2)no1 [Example 192]
B: CCCOC(=O)c1sc(N(C)C(=O)CCNC(=O)c2cccc(-c3noc(C)n3)c2)nc1C [Example 121]
C: CCCOC(=O)c1sc(NC(=O)CCNc2nccc3ccc(-c4noc(C)n4)cc23)nc1C [Example 54]
D: CCOC(=O)c1sc(NC(=O)CCNC(=O)c2cc(C#N)cc(C(=O)OC)c2)nc1C [Example 17]
List by increasing IC50. Write the labels, ordered according to the request.
C, B, A, D

1: CCN(c1nc(C)c(C(=O)OC(C)(C)C)s1)C(=O)[C@H]1C[C@@H](Nc2nccc3ccc(-c4noc(C)n4)cc23)C1 [Example 218]
2: CCOC(=O)c1sc(NC(=O)CC(NC(=O)c2cccc(-c3noc(C)n3)c2)C2CCN(C)CC2)nc1C (stereo not shown) [Example 147, formate]
3: Cc1ccc2ccnc(N[C@H]3C[C@@H](C(=O)Nc4nc(C)c(C(C)(C)C)s4)C3)c2c1 [Example 117]
4: CCc1nc(NC(=O)CCNc2nccc3ccc(-c4noc(C)n4)cc23)sc1C(C)(C)C [Example 81]
5: CCOC(=O)c1cccc(C(=O)NCCC(=O)Nc2nc(C)c(C(=O)OCC)s2)c1 [Example 42]
Order field: IC50 | Direction: descending (largest first) Write the labels, ordered according to the request.
3, 5, 2, 1, 4
